Target: PICK1, Q9NRD5
Sequence (Q9NRD5 17-115): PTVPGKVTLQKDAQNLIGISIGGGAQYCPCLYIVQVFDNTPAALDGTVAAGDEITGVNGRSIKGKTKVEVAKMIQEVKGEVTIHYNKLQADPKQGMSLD
Experiment: holdup assay
Set-up: key: below the threshold = too weak to quantify, mostly under pKd 3.1 to 4
Conditions: plain residues with an end cap or a label only (N-terminal biotin on a linker: ado-ado)

binder | pKd
GSQSQVETEA [FKBP4, Q02790] | below the threshold
ADEMICITTL [CACNA1D, Q01668] | 4.14
RDYTQSSSSL [GRM5, P41594] | 4.11
SQPLLVHDDV [KIT, P10721] | 4.06
KKTPVSRSHL [SLC22A3, O75751] | below the threshold
YAEKRMLTEV [KCNA6, P17658] | below the threshold
GVHSNDHSVV [LPAR1, Q92633] | below the threshold
IGHEDLETAV [DGKI, O75912] | below the threshold
TKDKVQETQI [LRRC4, Q9HBW1] | below the threshold
GTMFLRETSL [GUCY1A2, P33402] | 4.12
NISARRFTLC [FAM167B, Q9BTA0] | below the threshold
